The origin of these recorded values is the kinase profiling compilation of Christmann-Franck et al. (2016).

Could you please report measured per cent of control for the items listed next?
target: PKN2 (human); settings: compound 1.0 µM
I'd appreciate it if you included the unit after the number.

Query: Look up per cent of control for this compound: CCC(=O)N1CCN(c2ccc(-n3c(=O)ccc4cnc5ccc(-c6cnc7ccccc7c6)cc5c43)cc2C(F)(F)F)CC1
Reply: 97%

Query: Value lookup for per cent of control; key = COC(=O)Nc1ccc(-c2nc(N3CCOCC3)c3cnn(C4CCN(C(=O)OC)CC4)c3n2)cc1
Reply: 117%

Query: I'd like to know its per cent of control. The compound in question is COc1ccc(-c2ccc3c(N4CCOCC4)nc(N4C[C@@H](C)O[C@@H](C)C4)nc3n2)cc1CO
Reply: 95%

Query: Which per cent of control reading was recorded for the compound CC(C)n1nc(-c2cc3cc(O)ccc3[nH]2)c2c(N)ncnc21 ?
Reply: 68%

----------
Exercise: for every item that follows, state its recorded kinase still bound, per cent of control.
target: MAP4K5 (human); test: KINOMEscan competition binding; conditions: compound 10.0 µM
Number in %, nothing else.

Query: Which kinase still bound, per cent of control value is on record for COC(=O)Nc1ccc(-c2nc(N3CCOCC3)c3cnn(C4CCN(C(=O)OC)CC4)c3n2)cc1 ?
Reply: 100

Query: What value of kinase still bound, per cent of control has been recorded for this entry: CC(C)n1nc(-c2cc3cc(O)ccc3[nH]2)c2c(N)ncnc21
Reply: 72

Query: So what does the record say about kinase still bound, per cent of control for CCC(=O)N1CCN(c2ccc(-n3c(=O)ccc4cnc5ccc(-c6cnc7ccccc7c6)cc5c43)cc2C(F)(F)F)CC1 ?
Reply: 8.1

Query: Field request: kinase still bound, per cent of control | item: COc1ccc(-c2ccc3c(N4CCOCC4)nc(N4C[C@@H](C)O[C@@H](C)C4)nc3n2)cc1CO
Reply: 96

----------
biological target: CLK3 (human) (UniProt P49761); experiment: KINOMEscan competition binding; conditions: compound 10.0 µM
Sequence (P49761 whole entry, looked up): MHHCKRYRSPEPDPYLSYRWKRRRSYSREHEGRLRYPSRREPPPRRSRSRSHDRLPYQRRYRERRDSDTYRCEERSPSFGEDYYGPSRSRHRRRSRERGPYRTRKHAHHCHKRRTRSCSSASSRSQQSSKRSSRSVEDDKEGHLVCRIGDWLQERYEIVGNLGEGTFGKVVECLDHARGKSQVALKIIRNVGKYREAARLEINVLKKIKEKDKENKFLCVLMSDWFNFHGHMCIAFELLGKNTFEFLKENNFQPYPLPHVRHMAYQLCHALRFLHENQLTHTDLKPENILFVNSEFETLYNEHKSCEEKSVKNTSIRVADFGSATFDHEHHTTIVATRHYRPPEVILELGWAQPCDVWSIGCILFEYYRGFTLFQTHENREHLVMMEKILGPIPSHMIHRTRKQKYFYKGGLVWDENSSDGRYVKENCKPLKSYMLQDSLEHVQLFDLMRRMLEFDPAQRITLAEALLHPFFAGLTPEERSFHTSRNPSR
Give kinase still bound, per cent of control for every item shown.
Note to self: number, then unit, no commentary.

Query: Given the entry CC(C)n1nc(-c2cc3cc(O)ccc3[nH]2)c2c(N)ncnc21 , what kinase still bound, per cent of control was observed with CLK3 (human) (UniProt P49761)?
Reply: 66%

Query: Could you share what kinase still bound, per cent of control was measured for COC(=O)Nc1ccc(-c2nc(N3CCOCC3)c3cnn(C4CCN(C(=O)OC)CC4)c3n2)cc1 , tested on CLK3 (human) (UniProt P49761)?
Reply: 100%

Query: Entry COc1ccc(-c2ccc3c(N4CCOCC4)nc(N4C[C@@H](C)O[C@@H](C)C4)nc3n2)cc1CO , system CLK3 (human) (UniProt P49761): what kinase still bound, per cent of control was measured?
Reply: 90%

Query: Lookup: kinase still bound, per cent of control / CLK3 (human) (UniProt P49761) / CCC(=O)N1CCN(c2ccc(-n3c(=O)ccc4cnc5ccc(-c6cnc7ccccc7c6)cc5c43)cc2C(F)(F)F)CC1
Reply: 43%

----------
target: ROS1 (human) (UniProt P08922); test: KINOMEscan competition binding; details: compound 10.0 µM
Sequence (P08922 whole entry, looked up): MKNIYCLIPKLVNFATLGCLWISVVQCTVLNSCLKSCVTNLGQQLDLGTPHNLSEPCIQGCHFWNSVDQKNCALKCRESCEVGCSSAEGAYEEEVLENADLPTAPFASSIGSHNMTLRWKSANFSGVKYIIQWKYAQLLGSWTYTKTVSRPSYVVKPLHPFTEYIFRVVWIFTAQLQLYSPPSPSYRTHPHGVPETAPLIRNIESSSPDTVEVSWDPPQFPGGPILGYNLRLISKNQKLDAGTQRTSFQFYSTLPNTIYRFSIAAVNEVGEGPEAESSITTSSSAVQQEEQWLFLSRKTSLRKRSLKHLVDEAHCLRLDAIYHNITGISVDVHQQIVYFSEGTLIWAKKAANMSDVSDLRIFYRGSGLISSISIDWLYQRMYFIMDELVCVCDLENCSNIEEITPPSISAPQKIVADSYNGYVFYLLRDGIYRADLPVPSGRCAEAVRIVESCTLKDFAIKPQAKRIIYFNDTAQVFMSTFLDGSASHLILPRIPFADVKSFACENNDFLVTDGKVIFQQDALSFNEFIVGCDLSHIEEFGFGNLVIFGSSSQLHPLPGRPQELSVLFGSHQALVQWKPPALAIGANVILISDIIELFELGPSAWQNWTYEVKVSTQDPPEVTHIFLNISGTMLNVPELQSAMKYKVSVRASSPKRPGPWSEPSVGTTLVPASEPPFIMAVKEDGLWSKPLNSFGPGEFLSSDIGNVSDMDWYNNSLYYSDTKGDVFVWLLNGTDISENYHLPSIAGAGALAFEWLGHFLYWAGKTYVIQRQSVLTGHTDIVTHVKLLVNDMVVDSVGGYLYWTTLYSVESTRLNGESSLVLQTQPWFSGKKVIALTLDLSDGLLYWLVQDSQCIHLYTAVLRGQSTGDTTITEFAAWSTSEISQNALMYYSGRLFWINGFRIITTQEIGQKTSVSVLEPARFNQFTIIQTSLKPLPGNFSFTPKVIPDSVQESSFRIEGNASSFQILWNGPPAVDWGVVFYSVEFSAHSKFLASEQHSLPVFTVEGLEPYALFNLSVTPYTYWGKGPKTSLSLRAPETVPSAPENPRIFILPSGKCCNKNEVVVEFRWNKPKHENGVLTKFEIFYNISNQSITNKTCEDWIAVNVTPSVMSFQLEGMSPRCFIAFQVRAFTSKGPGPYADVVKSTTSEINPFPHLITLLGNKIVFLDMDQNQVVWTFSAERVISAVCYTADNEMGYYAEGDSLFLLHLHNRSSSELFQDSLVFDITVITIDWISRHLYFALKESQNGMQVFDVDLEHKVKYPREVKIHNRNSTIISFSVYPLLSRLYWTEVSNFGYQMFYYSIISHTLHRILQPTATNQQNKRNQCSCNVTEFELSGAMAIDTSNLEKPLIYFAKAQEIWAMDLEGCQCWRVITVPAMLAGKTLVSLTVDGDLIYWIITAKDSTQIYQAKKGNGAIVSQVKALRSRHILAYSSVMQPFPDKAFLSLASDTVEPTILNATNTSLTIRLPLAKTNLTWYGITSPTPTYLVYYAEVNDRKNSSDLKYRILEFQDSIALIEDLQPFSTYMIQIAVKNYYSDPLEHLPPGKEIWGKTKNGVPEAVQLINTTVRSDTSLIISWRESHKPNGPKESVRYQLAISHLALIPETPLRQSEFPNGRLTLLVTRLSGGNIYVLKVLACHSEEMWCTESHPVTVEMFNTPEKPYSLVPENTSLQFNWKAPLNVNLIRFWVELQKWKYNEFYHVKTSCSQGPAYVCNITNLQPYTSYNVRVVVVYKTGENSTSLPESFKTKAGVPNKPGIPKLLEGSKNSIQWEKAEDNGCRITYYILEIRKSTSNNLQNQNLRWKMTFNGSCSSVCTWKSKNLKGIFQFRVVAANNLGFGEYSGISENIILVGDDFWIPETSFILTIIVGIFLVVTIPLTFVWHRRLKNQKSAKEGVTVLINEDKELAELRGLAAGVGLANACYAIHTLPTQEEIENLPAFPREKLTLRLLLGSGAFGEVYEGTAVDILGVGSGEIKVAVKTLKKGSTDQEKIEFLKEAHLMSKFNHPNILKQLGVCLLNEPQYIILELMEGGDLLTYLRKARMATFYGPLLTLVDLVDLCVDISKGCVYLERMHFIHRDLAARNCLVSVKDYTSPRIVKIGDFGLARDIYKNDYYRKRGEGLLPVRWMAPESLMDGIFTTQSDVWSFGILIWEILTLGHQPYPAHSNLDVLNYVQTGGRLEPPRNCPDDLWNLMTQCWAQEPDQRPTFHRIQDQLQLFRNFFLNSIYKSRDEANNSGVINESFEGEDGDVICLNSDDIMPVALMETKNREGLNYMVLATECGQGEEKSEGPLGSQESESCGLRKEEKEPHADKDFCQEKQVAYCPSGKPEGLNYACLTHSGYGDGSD
measurement-label: kinase still bound, per cent of control (%)
Numbers only; they are read as %.

Query: Entry CCC(=O)N1CCN(c2ccc(-n3c(=O)ccc4cnc5ccc(-c6cnc7ccccc7c6)cc5c43)cc2C(F)(F)F)CC1 : reported kinase still bound, per cent of control = ?
Reply: 71

Query: // returns reported kinase still bound, per cent of control for input COc1ccc(-c2ccc3c(N4CCOCC4)nc(N4C[C@@H](C)O[C@@H](C)C4)nc3n2)cc1CO
Reply: 100

Query: Which kinase still bound, per cent of control value is on record for COC(=O)Nc1ccc(-c2nc(N3CCOCC3)c3cnn(C4CCN(C(=O)OC)CC4)c3n2)cc1 ?
Reply: 76

Query: Reported kinase still bound, per cent of control for CC(C)n1nc(-c2cc3cc(O)ccc3[nH]2)c2c(N)ncnc21 : what is it?
Reply: 100

----------
molecular target: IRAK4 (human); assay: KINOMEscan competition binding; details: compound 10.0 µM
measurement-label: kinase still bound, per cent of control (%)
Could you give me the number in %? Just the number is fine.

Query: Give its kinase still bound, per cent of control value. Item: CC(C)n1nc(-c2cc3cc(O)ccc3[nH]2)c2c(N)ncnc21
Reply: 44

Query: What does the record list as kinase still bound, per cent of control for COC(=O)Nc1ccc(-c2nc(N3CCOCC3)c3cnn(C4CCN(C(=O)OC)CC4)c3n2)cc1 ?
Reply: 82

Query: Can you share its kinase still bound, per cent of control? I mean this compound: CCC(=O)N1CCN(c2ccc(-n3c(=O)ccc4cnc5ccc(-c6cnc7ccccc7c6)cc5c43)cc2C(F)(F)F)CC1
Reply: 90

Query: Form field: reported kinase still bound, per cent of control of COc1ccc(-c2ccc3c(N4CCOCC4)nc(N4C[C@@H](C)O[C@@H](C)C4)nc3n2)cc1CO
Reply: 99

----------
For each record, write down the corresponding kinase still bound, per cent of control.
target: OXSR1 (human) (UniProt O95747); assay: KINOMEscan competition binding; settings: compound 10.0 µM
Sequence (O95747 whole entry, looked up): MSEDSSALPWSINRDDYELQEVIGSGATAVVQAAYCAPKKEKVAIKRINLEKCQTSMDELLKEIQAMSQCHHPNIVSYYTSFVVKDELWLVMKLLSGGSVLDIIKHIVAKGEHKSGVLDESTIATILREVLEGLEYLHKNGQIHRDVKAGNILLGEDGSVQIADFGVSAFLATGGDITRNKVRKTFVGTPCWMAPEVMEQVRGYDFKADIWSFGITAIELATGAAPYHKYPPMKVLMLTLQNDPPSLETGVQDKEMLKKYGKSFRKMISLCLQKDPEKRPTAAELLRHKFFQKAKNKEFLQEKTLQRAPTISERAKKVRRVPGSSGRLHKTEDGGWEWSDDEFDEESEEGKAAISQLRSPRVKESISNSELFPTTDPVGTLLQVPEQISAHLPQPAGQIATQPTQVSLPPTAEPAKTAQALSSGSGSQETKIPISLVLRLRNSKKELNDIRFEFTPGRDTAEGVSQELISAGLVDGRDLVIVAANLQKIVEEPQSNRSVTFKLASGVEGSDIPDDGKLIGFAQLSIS
Respond numerically; units are % and should not be typed.

Query: Entry CC(C)n1nc(-c2cc3cc(O)ccc3[nH]2)c2c(N)ncnc21 : reported kinase still bound, per cent of control = ?
Reply: 80

Query: // lookup kinase still bound, per cent of control for COc1ccc(-c2ccc3c(N4CCOCC4)nc(N4C[C@@H](C)O[C@@H](C)C4)nc3n2)cc1CO
Reply: 72

Query: State the recorded kinase still bound, per cent of control for this entry: COC(=O)Nc1ccc(-c2nc(N3CCOCC3)c3cnn(C4CCN(C(=O)OC)CC4)c3n2)cc1
Reply: 90

Query: // returns reported kinase still bound, per cent of control for input CCC(=O)N1CCN(c2ccc(-n3c(=O)ccc4cnc5ccc(-c6cnc7ccccc7c6)cc5c43)cc2C(F)(F)F)CC1
Reply: 100

----------
biological target: STK16 (human) (UniProt O75716); assay: KINOMEscan competition binding; conditions: compound 10.0 µM
Sequence (O75716 whole entry, looked up): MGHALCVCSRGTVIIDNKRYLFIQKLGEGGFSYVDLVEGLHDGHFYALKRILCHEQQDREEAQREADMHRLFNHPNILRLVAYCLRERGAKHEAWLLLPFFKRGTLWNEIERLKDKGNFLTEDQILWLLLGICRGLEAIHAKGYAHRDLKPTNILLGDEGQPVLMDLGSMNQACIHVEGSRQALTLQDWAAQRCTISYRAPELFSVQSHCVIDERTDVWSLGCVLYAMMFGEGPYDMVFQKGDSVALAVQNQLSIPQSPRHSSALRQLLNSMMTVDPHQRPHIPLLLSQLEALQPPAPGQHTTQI
Please go through the items and note down their kinase still bound, per cent of control.
Quick note: unit goes after the number.

Query: Find the measured kinase still bound, per cent of control: item CCC(=O)N1CCN(c2ccc(-n3c(=O)ccc4cnc5ccc(-c6cnc7ccccc7c6)cc5c43)cc2C(F)(F)F)CC1 , target or system STK16 (human) (UniProt O75716).
Reply: 18%

Query: Missing value: kinase still bound, per cent of control, STK16 (human) (UniProt O75716), entry CC(C)n1nc(-c2cc3cc(O)ccc3[nH]2)c2c(N)ncnc21 . Fill in?
Reply: 34%

Query: Checklist item: kinase still bound, per cent of control tested on STK16 (human) (UniProt O75716), entry COC(=O)Nc1ccc(-c2nc(N3CCOCC3)c3cnn(C4CCN(C(=O)OC)CC4)c3n2)cc1 , value?
Reply: 77%

Query: Recall the recorded kinase still bound, per cent of control for COc1ccc(-c2ccc3c(N4CCOCC4)nc(N4C[C@@H](C)O[C@@H](C)C4)nc3n2)cc1CO with STK16 (human) (UniProt O75716) and state it.
Reply: 93%

----------
molecular target: RPS6KA4 KD1 (human) (UniProt O75676); experiment: KINOMEscan competition binding; details: compound 10.0 µM
Sequence (O75676 whole entry, looked up): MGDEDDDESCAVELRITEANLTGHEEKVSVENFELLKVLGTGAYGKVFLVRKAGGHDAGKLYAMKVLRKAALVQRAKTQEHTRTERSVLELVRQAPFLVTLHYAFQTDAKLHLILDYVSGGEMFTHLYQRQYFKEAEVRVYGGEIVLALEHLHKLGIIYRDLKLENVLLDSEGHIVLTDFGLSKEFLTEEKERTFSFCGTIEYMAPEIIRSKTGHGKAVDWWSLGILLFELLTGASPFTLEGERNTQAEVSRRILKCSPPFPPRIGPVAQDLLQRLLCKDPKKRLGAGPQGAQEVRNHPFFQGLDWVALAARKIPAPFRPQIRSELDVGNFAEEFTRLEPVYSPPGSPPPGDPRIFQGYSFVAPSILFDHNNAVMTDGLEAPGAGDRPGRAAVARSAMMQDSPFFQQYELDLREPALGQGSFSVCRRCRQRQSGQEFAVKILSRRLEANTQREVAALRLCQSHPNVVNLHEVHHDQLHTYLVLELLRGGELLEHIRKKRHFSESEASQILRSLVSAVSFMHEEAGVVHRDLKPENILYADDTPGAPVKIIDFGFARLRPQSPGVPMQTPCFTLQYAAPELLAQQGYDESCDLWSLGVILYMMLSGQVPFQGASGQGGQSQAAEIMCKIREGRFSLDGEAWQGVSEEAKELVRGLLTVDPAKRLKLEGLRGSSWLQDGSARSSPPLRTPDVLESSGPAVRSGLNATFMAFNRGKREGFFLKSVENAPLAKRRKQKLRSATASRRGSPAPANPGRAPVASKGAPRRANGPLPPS
measurement-label: kinase still bound, per cent of control (%)
Dear colleague, please return just the value in %, with no unit written.

Query: Would you mind telling me what kinase still bound, per cent of control value was observed for CCC(=O)N1CCN(c2ccc(-n3c(=O)ccc4cnc5ccc(-c6cnc7ccccc7c6)cc5c43)cc2C(F)(F)F)CC1 ?
Reply: 100

Query: What does the data say about its kinase still bound, per cent of control? Entry: CC(C)n1nc(-c2cc3cc(O)ccc3[nH]2)c2c(N)ncnc21
Reply: 100

Query: What value of measured kinase still bound, per cent of control is listed for COC(=O)Nc1ccc(-c2nc(N3CCOCC3)c3cnn(C4CCN(C(=O)OC)CC4)c3n2)cc1 ?
Reply: 94

Query: # get_value(readout='kinase still bound, per cent of control', item= COc1ccc(-c2ccc3c(N4CCOCC4)nc(N4C[C@@H](C)O[C@@H](C)C4)nc3n2)cc1CO )
Reply: 96

----------
target: PAK4 (human) (UniProt O96013); conditions: compound 10.0 µM
Sequence (O96013 whole entry, looked up): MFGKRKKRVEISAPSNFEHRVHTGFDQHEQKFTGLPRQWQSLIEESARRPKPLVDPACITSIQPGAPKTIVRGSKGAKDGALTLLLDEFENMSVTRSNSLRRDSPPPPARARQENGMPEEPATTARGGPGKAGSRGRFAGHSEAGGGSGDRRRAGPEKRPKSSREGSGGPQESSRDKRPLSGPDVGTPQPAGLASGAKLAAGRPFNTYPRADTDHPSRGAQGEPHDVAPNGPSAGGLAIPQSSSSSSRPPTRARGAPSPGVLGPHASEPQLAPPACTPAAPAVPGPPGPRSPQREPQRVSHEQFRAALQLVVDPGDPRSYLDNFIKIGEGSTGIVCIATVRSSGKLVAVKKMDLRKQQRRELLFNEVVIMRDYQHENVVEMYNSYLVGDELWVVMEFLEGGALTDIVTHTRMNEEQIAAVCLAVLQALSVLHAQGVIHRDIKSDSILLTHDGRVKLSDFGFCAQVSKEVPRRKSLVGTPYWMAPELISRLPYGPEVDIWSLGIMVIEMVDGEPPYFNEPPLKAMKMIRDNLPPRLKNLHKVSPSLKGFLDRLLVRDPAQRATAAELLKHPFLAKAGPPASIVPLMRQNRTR
I'd appreciate it if you could supply per cent of control values for the items below.
Entry rule: numbers only, all in %.

Query: // per cent of control lookup, key: COc1ccc(-c2ccc3c(N4CCOCC4)nc(N4C[C@@H](C)O[C@@H](C)C4)nc3n2)cc1CO
Reply: 75

Query: Suppose we examine the molecule COC(=O)Nc1ccc(-c2nc(N3CCOCC3)c3cnn(C4CCN(C(=O)OC)CC4)c3n2)cc1 ; what per cent of control value has been reported?
Reply: 97

Query: Value lookup for per cent of control; key = CC(C)n1nc(-c2cc3cc(O)ccc3[nH]2)c2c(N)ncnc21
Reply: 28

Query: Reported per cent of control, molecule CCC(=O)N1CCN(c2ccc(-n3c(=O)ccc4cnc5ccc(-c6cnc7ccccc7c6)cc5c43)cc2C(F)(F)F)CC1 : ____
Reply: 66
